Tested on: cockspur grass
Experiment: whole plant or invertebrate
Type: in vivo
Conditions: Echinochloa crus-galli, read-out: inhibitory activity, Cockspur grass Stem
test readout: inhibition at 100 µg/mL (%)
API: value field is a number in %; no unit string.

Request: Output inhibition at 100 µg/mL of CC(Oc1ccc(F)cc1)C(=O)OC(C)P1(=O)OCC(C)(C)CO1 (centres unmarked)
Response: 0

Request: Read off the recorded inhibition at 100 µg/mL for CC(Oc1ccc(Cl)cc1Cl)C(=O)OC(C)P1(=O)OCC(C)(C)CO1 (centres unmarked)
Response: 0

Request: Indicate its recorded inhibition at 100 µg/mL; the compound in question is CC(OC(=O)COc1ccc(F)cc1Cl)P1(=O)OCC(C)(C)CO1 (centres unmarked)
Response: 0

Request: Supply measured inhibition at 100 µg/mL of Cc1cc(OCC(=O)OC(C)P2(=O)OCC(C)(C)CO2)ccc1Cl (centres unmarked) in your reply.
Response: 0

Request: State, in one line, measured inhibition at 100 µg/mL of CC(Oc1ccc(F)cc1Cl)C(=O)OC(C)P1(=O)OCC(C)(C)CO1 (centres unmarked)
Response: 0

Request: Input CC(OC(=O)COc1cccc(C(F)(F)F)c1)P1(=O)OCC(C)(C)CO1 (centres unmarked) , output reported inhibition at 100 µg/mL.
Response: 0

Request: Specify reported inhibition at 100 µg/mL for the compound shown: Cc1cc(Cl)ccc1OCC(=O)OC(C)P1(=O)OCC(C)(C)CO1 (centres unmarked)
Response: 80

Request: For the compound CC(Oc1ccc(Cl)cc1)C(=O)OC(C)P1(=O)OCC(C)(C)CO1 (centres unmarked) , give its measured inhibition at 100 µg/mL value.
Response: 0

Where do these numbers come from? They come from patent US9029542B2.
